target: mGluR5 receptor (Sus scrofa, UniProt I3LUI7); construct: 450 μg of protein from brain homogenate are incubated with 5 nM^3[H]-MPEP; from tissue; host or cells: pig brain hemispheres without medulla, cerebellum and pons; test: Affinity for the mGluR5 receptor: displacement of 3[H]-MPEP binding in pig brain homogenate; conditions: 10 μM compound, 5 nM 3[H]-MPEP
Sequence (I3LUI7 19-1212): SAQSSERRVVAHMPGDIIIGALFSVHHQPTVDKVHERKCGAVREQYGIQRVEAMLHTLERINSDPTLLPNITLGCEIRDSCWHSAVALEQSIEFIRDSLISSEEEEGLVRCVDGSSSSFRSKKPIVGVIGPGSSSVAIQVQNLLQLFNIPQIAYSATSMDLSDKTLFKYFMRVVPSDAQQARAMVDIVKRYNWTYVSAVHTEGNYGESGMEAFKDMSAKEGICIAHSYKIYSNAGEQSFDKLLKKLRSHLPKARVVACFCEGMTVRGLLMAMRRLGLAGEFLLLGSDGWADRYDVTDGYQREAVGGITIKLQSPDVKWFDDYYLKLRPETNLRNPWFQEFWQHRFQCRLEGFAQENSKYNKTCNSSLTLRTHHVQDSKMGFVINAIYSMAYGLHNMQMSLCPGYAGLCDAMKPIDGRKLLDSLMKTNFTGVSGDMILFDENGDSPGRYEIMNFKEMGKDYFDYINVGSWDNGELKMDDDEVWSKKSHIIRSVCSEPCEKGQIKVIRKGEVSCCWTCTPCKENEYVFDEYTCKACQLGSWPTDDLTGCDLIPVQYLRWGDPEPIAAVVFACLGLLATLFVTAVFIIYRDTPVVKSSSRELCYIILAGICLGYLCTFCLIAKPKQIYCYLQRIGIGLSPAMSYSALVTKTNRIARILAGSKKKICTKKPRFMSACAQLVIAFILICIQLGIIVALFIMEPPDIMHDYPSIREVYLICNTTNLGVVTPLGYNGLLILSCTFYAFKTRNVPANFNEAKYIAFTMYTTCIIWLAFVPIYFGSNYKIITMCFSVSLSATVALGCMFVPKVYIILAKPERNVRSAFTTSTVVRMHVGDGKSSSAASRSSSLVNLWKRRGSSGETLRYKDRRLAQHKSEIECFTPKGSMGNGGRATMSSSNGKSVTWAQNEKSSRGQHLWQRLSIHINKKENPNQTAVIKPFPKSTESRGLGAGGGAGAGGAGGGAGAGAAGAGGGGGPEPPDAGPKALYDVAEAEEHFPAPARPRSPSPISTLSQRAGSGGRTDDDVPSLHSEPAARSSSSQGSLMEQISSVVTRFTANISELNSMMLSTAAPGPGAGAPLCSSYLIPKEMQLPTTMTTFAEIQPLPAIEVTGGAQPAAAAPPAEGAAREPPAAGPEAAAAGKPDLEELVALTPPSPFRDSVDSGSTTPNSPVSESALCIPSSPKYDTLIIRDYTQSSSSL
# mGluR5 receptor inhibition of the 3[H]-MPEP binding in % (10 μM) >= 50% gives rule met, anything below gives rule not met

INSERT INTO measurements (compound, system_tested, class_label) VALUES
  ('Cc1cccc(C(=O)Nc2noc3ccc(C)cc23)c1 [Example 123]', 'mGluR5 receptor (Sus scrofa, UniProt I3LUI7)', 'rule met'),
  ('O=C(Nc1noc2ccccc12)c1csc2ccccc12 [Example 92]', 'mGluR5 receptor (Sus scrofa, UniProt I3LUI7)', 'rule met'),
  ('O=C(Nc1noc2cc(F)ccc12)C12CC3CC(CC(C3)C1)C2 [Example 102]', 'mGluR5 receptor (Sus scrofa, UniProt I3LUI7)', 'rule met'),
  ('O=C(Nc1noc2cccc(F)c12)C12CC3CC(CC(C3)C1)C2 [Example 150]', 'mGluR5 receptor (Sus scrofa, UniProt I3LUI7)', 'rule met'),
  ('CCC(C)C(=O)Nc1noc2ccc(Br)cc12 (centres unmarked) [Example 135]', 'mGluR5 receptor (Sus scrofa, UniProt I3LUI7)', 'rule not met'),
  ('O=C(Nc1noc2cc(Br)ccc12)c1cccs1 [Example 116]', 'mGluR5 receptor (Sus scrofa, UniProt I3LUI7)', 'rule not met'),
  ('Cc1cccc(C(=O)Nc2noc3ccc(C)cc23)c1 [Example 143]', 'mGluR5 receptor (Sus scrofa, UniProt I3LUI7)', 'rule not met'),
  ('Cc1cc(C(=O)Nc2noc3cccc(OCC(F)(F)F)c23)c(C)o1 [Example 166]', 'mGluR5 receptor (Sus scrofa, UniProt I3LUI7)', 'rule not met');

---

target: mGluR5 receptor (Sus scrofa, UniProt I3LUI7); construct: 450 μg of protein from brain homogenate are incubated with 5 nM^3[H]-MPEP; from tissue; host or cells: pig brain hemispheres without medulla, cerebellum and pons; assay: Affinity for the mGluR5 receptor: displacement of 3[H]-MPEP binding in pig brain homogenate; settings: 10 μM compound, 5 nM 3[H]-MPEP
Property: inhibition at 10 µM (%)

INSERT INTO results (molecule, system_tested, display_unit, quantitative_readout) VALUES
  ('Cc1ccc2onc(NC(=O)c3ccc(C(C)(C)C)cc3)c2c1 [Example 124]', 'mGluR5 receptor (Sus scrofa, UniProt I3LUI7)', '%', 43.5),
  ('Cc1ccc2onc(NC(=O)c3cccc(F)c3)c2c1 [Example 32]', 'mGluR5 receptor (Sus scrofa, UniProt I3LUI7)', '%', 40.1),
  ('O=C(Nc1noc2cc(F)ccc12)c1cc(F)cc(F)c1 [Example 100]', 'mGluR5 receptor (Sus scrofa, UniProt I3LUI7)', '%', 33.3),
  ('O=C(Nc1noc2ccc(Br)cc12)c1cccc(F)c1F [Example 133]', 'mGluR5 receptor (Sus scrofa, UniProt I3LUI7)', '%', 34.6),
  ('CN(C)c1cccc2onc(NC(=O)c3cccc([N+](=O)[O-])c3)c12 [Example 171]', 'mGluR5 receptor (Sus scrofa, UniProt I3LUI7)', '%', 42.3),
  ('Cc1ccc2onc(NC(=O)c3cccnc3Cl)c2c1 [Example 128]', 'mGluR5 receptor (Sus scrofa, UniProt I3LUI7)', '%', 33.1),
  ('Cc1ccc2onc(NC(=O)c3cccc(F)c3F)c2c1 [Example 126]', 'mGluR5 receptor (Sus scrofa, UniProt I3LUI7)', '%', 39.5),
  ('O=C(Nc1noc2cccc(F)c12)c1ccccc1F [Example 149]', 'mGluR5 receptor (Sus scrofa, UniProt I3LUI7)', '%', 32.5),
  ('Cc1ccc(C(=O)Nc2noc3ccc(Br)cc23)cc1 [Example 138]', 'mGluR5 receptor (Sus scrofa, UniProt I3LUI7)', '%', 32),
  ('O=C(Nc1noc2ccc(Br)cc12)c1cc(F)ccc1C(F)(F)F [Example 141]', 'mGluR5 receptor (Sus scrofa, UniProt I3LUI7)', '%', 33.1);
